# Test system: NCI-H460 lung
# test-protocol: NCI tumour cell line growth inhibition, 48 h
experimental-readout: TGI

compound	experimental-readout	data-value
O=C(Nc1ccc(Cl)cc1)c1cc(S(=O)(=O)Nc2nc3ncccc3[nH]2)c(SSc2cc(Cl)c(C(=O)Nc3ccc(Cl)cc3)cc2S(=O)(=O)Nc2nc3ncccc3[nH]2)cc1Cl	TGI	> 100 µM
COc1ccccc1C1C(C#N)=C(N)SC(N)=C1C#N	TGI	> 100 µM
OC(c1ccccc1)c1c(-c2ccccc2)[nH]c(-c2ccccc2)c1C(O)c1ccccc1 (centres undefined)	TGI	14.2 µM
CSC(=Nc1ccccc1)c1c(C)[nH]n(-c2ccccc2)c1=O	TGI	> 100 µM
COc1ccc(-c2nn3ncccc3c2-c2ccnc(Nc3ccc(F)c(F)c3)n2)cc1	TGI	> 25 µM
Cc1c2ccccc2c(/C=N/NC(=O)CSCC(=O)N/N=C/c2c3ccccc3c(C)c3ccccc23)c2ccccc12	TGI	> 100 µM
O=c1cc(-c2cccc(Cl)c2)[nH]c2cc3c(cc12)OCO3	TGI	> 100 µM
COc1ccc(Nc2nc3ccccc3nc2-c2cccs2)cc1OC	TGI	> 10 µM
CCOc1cc2c(cc1OC)c[n+](C)c1c3cc(OC)c(OC)cc3ccc21	TGI	> 100 µM

====

# System: CAKI-1 renal
# test-protocol: NCI tumour cell line growth inhibition, 48 h
Listing: GI50 of selected compounds

given-smiles	GI50
CCOc1cc(/C=C/C(=O)CC(=O)/C=C/c2ccc(OC(=O)CNc3nc4ccc(OC)cc4s3)c(OCC)c2)ccc1OC(=O)CNc1nc2ccc(OC)cc2s1	11.4 µM
COCCn1c(Nc2ccc(C(=O)NO)cc2)nc2ccccc21	1.37 µM
COc1ccc2c(c1)c(-c1ccc(-c3cn(C)c4ccc(OC)cc34)s1)cn2C	> 100 µM

====

# System: KM12 colon
# test-protocol: NCI tumour cell line growth inhibition, 48 h
*1 amine or outer side, *2 acyl side, *3 side chain or, on linkers, in order; H or OH if unused. Where a SMILES comes first, the peptide text is derived from it. The star is where a group is joined. γGlu = O=C(O)[CH](CCC(=O)[*:2])N[*:1]; NHOH = ON*
experimental-readout: TGI

compound	experimental-readout	data-value
CC1=C[C@H](C[C@]2(C)c3c(c4c(C)cccc4oc3=O)O[C@@H]2C)OC1=O	TGI	> 100 µM
Cc1ccccc1NC(=O)C(=O)C(C1OC(=O)c2ccccc21)[N+](=O)[O-] (stereo not given)	TGI	> 100 µM
Clc1ccc2c(NC3CCC(NC4CCCCC4)CC3)ccnc2c1 (stereo not given)	TGI	18.9 µM
O=C(O)CSC1=NCCN1	TGI	> 100 µM
CCOC(=O)Cn1nnc2ccc(Nc3nc4ccccc4nc3C(=O)OCC)cc21	TGI	> 100 µM
CCOC(=O)N1CCC2(CC1)C[C@](Sc1ccccc1)(C(C)=O)[C@H](C)O2	TGI	> 100 µM
O=NN(CC1(O)OCC(O)C(O)C1O)C(Cc1c[nH]c2ccccc12)C(=O)O (stereo not given)	TGI	> 100 µM
CCOC(=O)c1ccc(N2C(=O)/C(=C/c3ccc(N(CCC#N)CCC#N)cc3)N=C2c2cc([N+](=O)[O-])ccc2Cl)cc1	TGI	> 100 µM
CN(C)c1ccc(-c2c(C#N)c(-c3ccccc3)n(NS(=O)(=O)c3ccccc3)c(=O)c2C#N)cc1	TGI	> 100 µM
NC(CCC(=O)NC(CCC(=O)NO)C(=O)NCC(=O)O)C(=O)O (stereo not given) (γGlu-Glu(NHOH)-Gly-OH; configuration not given here)	TGI	> 100 µM
Fc1ccc(F)c(C=NC23CC4CC(CC(C4)C2)C3)c1	TGI	> 10 µM
CCN(CC)C(=O)c1cccc2c(OC)ccc(OC)c12	TGI	> 100 µM
CCCSc1ccc2[nH]c(N3C(=O)/C(=C/c4ccc(O)c(OC)c4)N=C3c3ccccc3)cc2c1	TGI	> 100 µM
CCOc1cc2c(cc1OC)c[n+](C)c1c3cc(OC)c(OC)cc3ccc21	TGI	> 100 µM
CN(C(=O)Cc1cc(Cl)c(Cl)cc1NC(=O)CCCN)[C@H]1CCCC[C@@H]1N1CCCC1	TGI	36.7 µM
Cc1cc2c(cc1Cl)SC(=Nc1ccc(Cl)cc1)N(S(=O)(=O)c1ccc(Br)s1)S2(=O)=O	TGI	37.7 µM
CCOC(=O)CCCN	TGI	> 100 µM
O=S(=O)(O)c1cc(O)c(N=NC2S(=O)(=O)OCCOS2(=O)=O)c2ccccc12	TGI	> 100 µM
CCCN1CCC(Oc2cc(Nc3nc(Nc4cccc(F)c4C(N)=O)c4cc[nH]c4n3)c(OC)cc2Cl)CC1	TGI	6.11 µM
COc1ccc(Nc2nc3ccccc3nc2-c2cccs2)cc1OC	TGI	> 10 µM
CC1OC1C(=O)P(=O)(O)O (stereo not given)	TGI	> 100 µM
COc1cc(-c2csc(NC(=O)Nc3ccc(Cl)cc3)n2)cc(OC)c1OC	TGI	7.9 µM
CC1=NC2(C(=O)O)C3(C(=O)O)N=C(C)OC3(C(F)(F)F)C2(C(F)(F)F)O1 (stereo not given)	TGI	> 100 µM
CCO/C(O)=c1/s/c(=C2/SC(=S)N(c3ccc(C)cc3)C2=O)n(-c2ccccc2)c1=N	TGI	> 100 µM
CCOc1ccc2c(c1)[n+]([O-])c(C(N)=O)c(N)[n+]2[O-]	TGI	> 100 µM
O=C1/C(=C/c2cc(O)c(O)c(O)c2)Oc2cc(O)cc(OC3OC(CO)C(O)C(O)C3O)c21 (stereo not given)	TGI	> 100 µM
COC(=O)c1sc2nc(Nc3ccccc3)c(=Nc3ccccc3)sc2c1C	TGI	> 100 µM
O=C(c1ccccc1)c1nc2ccc(Cl)cc2cc1C(Br)Br	TGI	1.06 µM
Cc1cc(NC(=O)NCCCOc2ccc(N3C(N)=NC(N)=NC3(C)C)cc2Cl)ccc1S(=O)(=O)F	TGI	17 µM
CCOc1cc(/C=C/C(=O)CC(=O)/C=C/c2ccc(OC(=O)CNc3nc4ccc(OC)cc4s3)c(OCC)c2)ccc1OC(=O)CNc1nc2ccc(OC)cc2s1	TGI	12.1 µM
CCCCCCCCCCCC1=NC(C)(C)CN1C(C)C	TGI	3.96 µM
CC(C)N1CCOC(c2ccc(O)c(O)c2)C1 (stereo not given)	TGI	> 100 µM
Cc1cccc(C)c1NC(=S)N/C=C(\C#N)C(N)=O	TGI	> 100 µM
CC(C)(C)c1ccc(O)c(C(O)c2ccccn2)c1 (stereo not given)	TGI	> 100 µM
O=C(CN1CCCCC1)c1ccc2[nH]c(=O)oc2c1	TGI	> 100 µM
O=S1(=O)[C@H](c2ccccc2)c2c(-c3ccccc3)sc(-c3ccccc3)c2[C@@H]1c1ccccc1	TGI	> 100 µM
O=c1[nH]c(=O)n(Cc2ccc(C34CC5CC(CC(C5)C3)C4)c(O)c2)cc1F	TGI	28.5 µM
CC(C)OC(=O)Nc1c([N+](=O)[O-])cc(C(F)(F)F)cc1[N+](=O)[O-]	TGI	> 100 µM
CCN(CC)P(=O)(c1ccc2c(c1)OCCOCCOCCOCCO2)N(CC)CC	TGI	> 100 µM
C[C@]12CC[C@H]3[C@@H](CC=C4C[C@@H](N5CCCC5)CC[C@@]43C)[C@@H]1C/C(=C\c1ccc([N+](=O)[O-])cc1)[C@@H]2O	TGI	33.2 µM

====

# Tested on: RPMI-8226 leukemia
# test-protocol: NCI tumour cell line growth inhibition, 48 h
Listing: TGI of selected compounds
experimental-readout: TGI (µM)

compound	experimental-readout	qualifying-sign	data-value
c1ccc(C/C(=N\Nc2nc3ccccc3[nH]2)c2ccccn2)cc1	TGI	=	0.131
Clc1ccc2c(NCCCCNc3nc(N4CCOCC4)nc4ccccc34)ccnc2c1	TGI	=	7.21
CCOC(=O)N1CCC2(CC1)C[C@](Sc1ccccc1)(C(C)=O)[C@H](C)O2	TGI	>	100
O=[N+]([O-])c1ccc(Cl)c(C2CC(c3cccc4ccccc34)=Nc3ccccc3S2=O)c1 (stereo not given)	TGI	=	7.7
CCCCCCCCCCCC(c1ccccc1)[N+](C)(C)C (stereo not given)	TGI	=	1.92
CCOC(=O)c1ccc(-c2onc(C)c2Br)[nH]1	TGI	>	100
CCCSc1ccc2[nH]c(N3C(=O)/C(=C/c4ccc(O)c(OC)c4)N=C3c3ccccc3)cc2c1	TGI	=	34.3
CC(=O)Oc1ccc2c(c1)O/C(=C\c1ccc(N(C)C)cc1)C2=O	TGI	>	100
Cc1ccc(N=NC(=Nc2ccc(F)cc2)c2ccc(N(CCC#N)CCC#N)cc2)cc1	TGI	>	100
CCOC(=O)Cn1nnc2ccc(Nc3nc4ccccc4nc3C(=O)OCC)cc21	TGI	>	100

====

# Test system: KM12 colon
# test-protocol: NCI tumour cell line growth inhibition, 48 h; in the data active means GI50 below about 0.43 µM; inactive means the rest
Outcome codes: TRUE = active, FALSE = inactive

compound	discrete-label
CCN(CC)CCN1C(=O)C2C3C(C)=CC(OC(C)=O)(CC3C)C2C1=O (centres undefined)	FALSE
Cc1cc(NC(=O)NCCCOc2ccc(N3C(N)=NC(N)=NC3(C)C)cc2Cl)ccc1S(=O)(=O)F	FALSE
CN1CCC2(CC1)C(=O)Nc1cc(NC(=O)c3ccc4c(c3)C[C@@H]3C(C)(C)[C@H](O)[C@H](F)C[C@@]3(C)O4)ccc12	FALSE
CCCCCCCCCCCC1=NC(C)(C)CN1C(C)C	FALSE
COc1ccc2c(c1[N+](=O)[O-])CC[C@@H]1[C@@H]2CC[C@]2(C)C(=O)CC[C@@H]12	FALSE
CCn1c(-c2nonc2N)nc2cnc(Oc3cccc(NC(=O)c4ccc(OCCN5CCOCC5)cc4)c3)cc21	FALSE
Oc1ccc(CCNc2nc3ccccc3c3[nH]c4ccccc4c23)cc1O	FALSE
COc1cc(-c2csc(NC(=O)Nc3ccc(Cl)cc3)n2)cc(OC)c1OC	FALSE
COc1cccc2c1C(=O)c1c(O)c3c(c(O)c1C2=O)C[C@@](O)(/C(C)=N/NC(=O)c1cccc([N+](=O)[O-])c1)C[C@@H]3OC1CC(N)C(O)C(C)O1 (some centres undefined)	TRUE
O=C(Nc1ccccc1/C=C/c1n[nH]c2ccccc12)c1ccccc1	TRUE
COCCn1c(Nc2ccc(C(=O)NO)cc2)nc2ccccc21	FALSE
Cc1ccc(NC(=O)c2ccoc2)cc1-c1ccc(C(=O)NCC2CC2)cc1	FALSE
Cc1ccc(/C=C/C(=O)c2ccc(F)cc2)s1	FALSE
CCCCCCCCCCCC(c1ccccc1)[N+](C)(C)C (centres undefined)	FALSE
